- measured_on: UniProt:O43613
- Sequence (O43613 whole entry): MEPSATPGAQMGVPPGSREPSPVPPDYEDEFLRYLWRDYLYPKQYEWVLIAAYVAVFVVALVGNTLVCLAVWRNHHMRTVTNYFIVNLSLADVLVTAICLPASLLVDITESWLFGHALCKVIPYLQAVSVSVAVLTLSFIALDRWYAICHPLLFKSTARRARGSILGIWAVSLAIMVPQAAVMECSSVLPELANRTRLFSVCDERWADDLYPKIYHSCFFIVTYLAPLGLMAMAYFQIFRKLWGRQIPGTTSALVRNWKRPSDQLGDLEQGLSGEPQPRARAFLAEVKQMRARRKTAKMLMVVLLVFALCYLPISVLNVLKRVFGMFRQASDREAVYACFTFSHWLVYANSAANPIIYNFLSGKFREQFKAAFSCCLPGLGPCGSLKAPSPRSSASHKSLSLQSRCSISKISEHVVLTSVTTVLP
- assay_remarks: In vitro intracellular calcium measurements (FLIPR), antagonistic activity on orexin-1 receptor
- Assay type: cell-based
- test_conditions: read-out: IC50 OX1
measured_property: pIC50
Expect pIC50 as a plain number equal to -log10 of the molar concentration.

# get_value(readout='pIC50', item= O=C(c1ccc(F)cc1-n1nccn1)N1CCOC[C@H]1Cc1cccc(-n2nccn2)c1 ) 7.39

// query: Cc1ccc(C(=O)N2CCOC[C@H]2Cc2cccc(-n3nccn3)c2)c(-n2nccn2)c1 8.70

// query: Cc1ccc(C(=O)N2CCOC[C@H]2Cc2cc(F)cc(-n3nccn3)c2)c(-n2nccn2)c1 8.52

// query: Cc1ccc(C(=O)N2[C@H](Cc3cccc(-n4nccn4)c3)COC[C@H]2C)c(-n2nccn2)c1 9.05

// query: COc1ccc(C(=O)N2CCOC[C@H]2Cc2cccc(-n3nccn3)c2)c(-n2nccn2)c1 8.30

// query: Cc1ccc(C(=O)N2C[C@H](C)OC[C@H]2Cc2cccc(-n3nccn3)c2)c(-n2nccn2)c1 8.00

// query: Cc1ccc(C(=O)N2CCOC[C@H]2Cc2cccc(-n3nccn3)c2)c(-n2nccn2)c1C 8.52

// query: Cc1ccc(C(=O)N2C[C@@H](C)OC[C@H]2Cc2cccc(-n3nccn3)c2)c(-n2nccn2)c1 8.70

Origin of measurements: patent US9150566B2
